assay: Inhibition of human HSP70/DnaJ-mediated luciferase refolding after 10 mins by liquid scintillation counting
pIC50: −log10 of the molar value.
RECORDED METRIC: pIC50

For orientation, consider the following solved cases.
| COMPOUND | pIC50 |
| --- | --- |
| COC(=O)c1cccc(NC(=O)COc2cc(Cl)ccc2Cl)c1 | 6.02 |
| CCOC(=O)c1cccc(NC(=O)COc2ccccc2Cl)c1 | 6.21 |

a = c1ccc(Nc2nc(-c3cccs3)cs2)cc1
b = CCCCOC(=O)c1cccc(NC(=O)COc2ccc(Cl)cc2Cl)c1
// max by pIC50 over [ a , b ] To answer, give the label that identifies your chosen option.
b
(b: 6.89, a: 4.66)

Source: ChEMBL document CHEMBL2169884
